Assignment: determine reported IC50 for the given molecules.
System: MOLM-13 cells
Experiment: Cell viability assay (CellTiter-Glo) in MOLM-13 cells, alone or with gilteritinib
Type: cell-based
Conditions: Homo sapiens, 72 h; MOLM-13 cells, compound alone (without gilteritinib), three days, CellTiter-Glo; read-out: MOLM-13 IC50

*Q* Requested read-out: IC50. Entry: O=C1CCC(N2Cc3ccc(CCCCCCC(=O)N4CCC(c5ccc(Cl)cc5)CC4)cc3C2=O)C(=O)N1 (stereo not shown)
*A* 0.1 to 1 µM

*Q* Requested read-out: IC50. Entry: O=C1CCC(N2Cc3cc(CNC(=O)Nc4cccc(N5CCC(c6ccccc6)CC5)c4)ccc3C2=O)C(=O)N1 (stereo not shown)
*A* < 0.01 µM

*Q* Requested read-out: IC50. Entry: O=C1CCC(N2C(=O)c3ccc(NC[C@H]4C[C@H](n5cc(-c6ccncn6)c(C6CC6)n5)C4)cc3C2=O)C(=O)N1 (stereo partly shown)
*A* > 1 µM

*Q* Requested read-out: IC50. Entry: O=C1CCC(N2Cc3ccc(CCCCCCC(=O)N4CCN(c5ccccn5)CC4)cc3C2=O)C(=O)N1 (stereo not shown)
*A* 0.1 to 1 µM

*Q* Requested read-out: IC50. Entry: O=C1CCC(N2C(=O)c3ccc(NCCNC4CC(n5cc(-c6cnc7ccccc7n6)cn5)C4)cc3C2=O)C(=O)N1 (stereo not shown)
*A* > 1 µM

*Q* Requested read-out: IC50. Entry: O=C1CCC(N2C(=O)c3ccc(NCCCC(=O)N4CCC(c5ccccc5)CC4)cc3C2=O)C(=O)N1 (stereo not shown)
*A* 0.1 to 1 µM

*Q* Requested read-out: IC50. Entry: O=C1CCC(N2C(=O)c3ccc(NCCCCCCn4cc(-c5ccccc5)cn4)cc3C2=O)C(=O)N1 (stereo not shown)
*A* 0.1 to 1 µM

* * *

System: MOLM-13 cells
Test: Cell viability assay (CellTiter-Glo) in MOLM-13 cells, alone or with gilteritinib
Assay type: cell-based
Conditions: Homo sapiens, MOLM-13, 72 h, MOLM-13 cells, with gilteritinib 20 nM, three days, CellTiter-Glo; read-out: MOLM-13 IC50 gilteritinib
measured-parameter: IC50

*Q* Requested read-out: IC50. Entry: O=C1CCC(N2C(=O)c3ccc(NC[C@H]4C[C@H](n5cc(-c6ccc(F)cn6)c(C6CC6)n5)C4)cc3C2=O)C(=O)N1 (some centres unmarked)
*A* 10 to 100 nM

*Q* Requested read-out: IC50. Entry: O=C1CCC(N2C(=O)c3ccc(NCCCCCCn4cc(-c5cnc6cccc(Br)c6n5)cn4)cc3C2=O)C(=O)N1 (centres unmarked)
*A* 10 to 100 nM

*Q* Requested read-out: IC50. Entry: O=C1CCC(N2C(=O)c3ccc(NCCC[C@H]4C[C@H](n5cc(-c6cccc(C7CCNCC7)n6)cn5)C4)cc3C2=O)C(=O)N1 (some centres unmarked)
*A* 10 to 100 nM

*Q* Requested read-out: IC50. Entry: Cc1nn(CCCCCCNc2ccc3c(c2)C(=O)N(C2CCC(=O)NC2=O)C3=O)c(C)c1-c1ncc2ccccc2n1 (centres unmarked)
*A* < 10 nM

*Q* Requested read-out: IC50. Entry: COc1ccc2ncc(-c3cnn(CCCCCCNc4ccc5c(c4)C(=O)N(C4CCC(=O)NC4=O)C5=O)c3)nc2c1 (centres unmarked)
*A* < 10 nM

*Q* Requested read-out: IC50. Entry: O=C1CCC(N2C(=O)c3ccc(NC[C@H]4C[C@H](n5cc(-c6cccnc6)c(C6CC6)n5)C4)cc3C2=O)C(=O)N1 (some centres unmarked)
*A* 10 to 100 nM

*Q* Requested read-out: IC50. Entry: O=C1CCC(N2C(=O)c3ccc(NCC45CC(C(=O)N6CCC(n7cc(-c8cnc9ccccc9n8)cn7)CC6)(C4)C5)cc3C2=O)C(=O)N1 (centres unmarked)
*A* 100 to 1000 nM

*Q* Requested read-out: IC50. Entry: Cc1nn([C@H]2C[C@H](CCCNc3ccc4c(c3)C(=O)N(C3CCC(=O)NC3=O)C4=O)C2)cc1-c1cccc(N2CCOCC2)n1 (some centres unmarked)
*A* 10 to 100 nM

*Q* Requested read-out: IC50. Entry: O=C1CCC(N2C(=O)c3ccc(NCCCCn4cc(-c5cnc6ccccc6n5)cn4)cc3C2=O)C(=O)N1 (centres unmarked)
*A* 10 to 100 nM

*Q* Requested read-out: IC50. Entry: O=C1CCC(N2Cc3ccc(CCCCCCC(=O)N4CCC(c5cccc(Cl)c5)CC4)cc3C2=O)C(=O)N1 (centres unmarked)
*A* < 10 nM

*Q* Requested read-out: IC50. Entry: COc1cccnc1-c1cn([C@H]2C[C@H](CNc3ccc4c(c3)C(=O)N(C3CCC(=O)NC3=O)C4=O)C2)nc1C1CC1 (some centres unmarked)
*A* < 10 nM

*Q* Requested read-out: IC50. Entry: CN(c1ccc2[nH]ccc2n1)C1CCN(CC(=O)NCCNc2ccc3c(c2)C(=O)N(C2CCC(=O)NC2=O)C3=O)CC1 (centres unmarked)
*A* > 1000 nM

*Q* Requested read-out: IC50. Entry: CN1CCC(c2cccc3ncc(-c4cnn(CCCCCCNc5ccc6c(c5)C(=O)N(C5CCC(=O)NC5=O)C6=O)c4)nc23)CC1 (centres unmarked)
*A* > 1000 nM

*Q* Requested read-out: IC50. Entry: O=C1CCC(N2C(=O)c3ccc(NCCCCCC(=O)N4CCC(n5cc(C6CCCCC6)cn5)CC4)cc3C2=O)C(=O)N1 (centres unmarked)
*A* < 10 nM

*Q* Requested read-out: IC50. Entry: O=C1CCC(N2C(=O)c3ccc(NC[C@H]4C[C@H](n5cc(-c6cccc(NC7CC(O)C7)n6)c(C6CC6)n5)C4)cc3C2=O)C(=O)N1 (some centres unmarked)
*A* > 1000 nM

*Q* Requested read-out: IC50. Entry: O=C1CCC(N2C(=O)c3ccc(NCCC[C@H]4C[C@@H](n5cc(-c6cnc7ccc(NC8CCNCC8)cc7n6)cn5)C4)cc3C2=O)C(=O)N1 (some centres unmarked)
*A* 10 to 100 nM

*Q* Requested read-out: IC50. Entry: O=C1CCC(N2Cc3c(Nc4ccnc(Nc5cccc(N6CCC(N7CCCCC7)CC6)c5)n4)cccc3C2=O)C(=O)N1 (centres unmarked)
*A* > 1000 nM

*Q* Requested read-out: IC50. Entry: O=C1CCC(N2C(=O)c3ccc(NC[C@H]4C[C@H](n5cc(-c6cc(Cl)ccn6)c(C6CC6)n5)C4)cc3C2=O)C(=O)N1 (some centres unmarked)
*A* < 10 nM

*Q* Requested read-out: IC50. Entry: O=C1CCC(N2Cc3ccc(CCCCCCC(=O)N4CCC(n5cc(-c6cnc7ccccc7n6)cn5)CC4)cc3C2=O)C(=O)N1 (centres unmarked)
*A* < 10 nM

*Q* Requested read-out: IC50. Entry: O=C(CC1CC(N2CCC(n3cc(-c4cnc5ccccc5n4)cn3)CC2)C1)NCc1ccc2c(c1)CN(C1CCC(=O)NC1=O)C2=O (centres unmarked)
*A* 100 to 1000 nM

*Q* Requested read-out: IC50. Entry: CN(C)c1cccc(-c2cnn([C@H]3C[C@H](CCCNc4ccc5c(c4)C(=O)N(C4CCC(=O)NC4=O)C5=O)C3)c2)n1 (some centres unmarked)
*A* 10 to 100 nM

*Q* Requested read-out: IC50. Entry: O=C(CC1CCC(N2CCC(n3cc(-c4cnc5ccccc5n4)cn3)CC2)CC1)NCc1ccc2c(c1)CN(C1CCC(=O)NC1=O)C2=O (centres unmarked)
*A* > 1000 nM

*Q* Requested read-out: IC50. Entry: O=C1CCC(N2C(=O)c3ccc(NC[C@H]4C[C@H](n5cc(-c6nccc7[nH]ccc67)c(C6CC6)n5)C4)cc3C2=O)C(=O)N1 (some centres unmarked)
*A* < 10 nM

*Q* Requested read-out: IC50. Entry: O=C1CCC(N2C(=O)c3ccc(NC(=O)CCCCC(=O)N4CCC(n5cc(-c6cnc7ccccc7n6)cn5)CC4)cc3C2=O)C(=O)N1 (centres unmarked)
*A* 100 to 1000 nM

*Q* Requested read-out: IC50. Entry: Cc1nn([C@H]2C[C@H](CCCNc3ccc4c(c3)C(=O)N(C3CCC(=O)NC3=O)C4=O)C2)cc1-c1cnc2ccc(N3C[C@H]4C[C@@H]3CN4C)cc2n1 (some centres unmarked)
*A* 10 to 100 nM

*Q* Requested read-out: IC50. Entry: O=C1CCC(N2C(=O)c3ccc(NCCC[C@H]4C[C@H](n5cc(-c6cnc7ccc(N8CC9CCC(C8)N9)cc7n6)cn5)C4)cc3C2=O)C(=O)N1 (some centres unmarked)
*A* < 10 nM

The measurements presented in this section are drawn from patent US20240050428A1.
